Data credit: PubChem BioAssay

Give viability for every item shown.
assay: MRP1 drug-resistance reversers in H69AR cells – cell-based, doxorubicin co-treatment, pilot screen (AID 601); details: H69AR cells, CellTiter-Glo, 72 h; compound alone cytotoxicity; at 10 µM

Provide viability value for the following compound: CNC(=O)C1C2C=CC3(O2)C1C(=O)N(C1CC1)C3C(=O)NCc1ccc(OC)cc1 (stereo not drawn)
91.5%

Provide viability value for the following compound: CCc1ccccc1NC(=O)c1cnc2n(c1=O)CCS2
91.6%

Provide viability value for the following compound: CCCCCn1c(CCNC(=O)CCC)nc2ccccc21
87.4%

* * *

Give viability increase for every item shown.
experiment: doxorubicin toxicity protection in MRP-1 cells – H69AR cells, CellTiter-Glo, duplicate, MRP-1 activator project, pilot screen (AID 807); settings: H69AR viability with doxorubicin, CellTiter-Glo luminescence; at 10 µM; stronger effect = higher value;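 also: compound pretreatment 18-22 h then 72 h combined with doxorubicin; 0% = doxorubicin alone and 100% = vehicle without doxorubicin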
Unit % implied. Number only.

Provide viability increase value for the following compound: Cc1cccc(Cc2c(C)nc3nc(SCC(=O)NCc4ccco4)nn3c2C)c1
-3.35

Provide viability increase value for the following compound: CCn1cc(S(=O)(=O)CC(=O)Nc2ccc3c(c2)OCCO3)c2ccccc21
0.14

Provide viability increase value for the following compound: CCC(C)C(=O)Nc1nc2c(s1)C(=O)CC(C)(C)C2 (stereo unspecified)
0.25

Provide viability increase value for the following compound: CC12CCC(C(=O)Nc3ccc4c(c3)OCCO4)(OC1=O)C2(C)C (stereo unspecified)
-0.01

Provide viability increase value for the following compound: CC(=O)c1ccc(NC(=O)C2CCN(S(=O)(=O)c3cccc4cccnc34)CC2)cc1
-1.12

Provide viability increase value for the following compound: CCOC(=O)C(C(=O)Nc1ccccc1)C1CCCCC1 (stereo unspecified)
-5.02

Provide viability increase value for the following compound: O=C1CCCc2c1cc(C(=O)NCCCN1CCOCC1)c(=O)n2-c1ccc(Cl)cc1
-2.29

Provide viability increase value for the following compound: CCCOC(=O)c1[nH]c2c(c1C)C(=O)CC(c1cc(OC)c(OC)c(OC)c1)C2 (stereo unspecified)
1.98

Provide viability increase value for the following compound: CCOc1ccccc1C(=O)Nc1nnc(CC)s1
-2.43

Provide viability increase value for the following compound: CC(C)n1c(SCc2ccccc2F)nc2c1c(=O)n(C)c(=O)n2C
-1.77

Provide viability increase value for the following compound: Cn1c(=O)c2cc(S(=O)(=O)NC(Cc3ccccc3)C(=O)NCc3ccco3)ccc2n(C)c1=O (stereo unspecified)
-4.79

Provide viability increase value for the following compound: COc1ccccc1S(=O)(=O)Cc1ccc(C(=O)NCCN2CCCCCC2)o1
-2.82

Provide viability increase value for the following compound: O=C(CSc1cn(Cc2ccccc2)c2ccccc12)Nc1nccs1
1.89

Provide viability increase value for the following compound: O=C(NCCN1CCOCC1)c1ccc2c(c1)N(Cc1ccccc1)CCS2
-2.25

Provide viability increase value for the following compound: CN1CCN(CCCNC(=O)c2ccc(CS(=O)(=O)c3ccc(Br)cc3)o2)CC1
-1.18

Provide viability increase value for the following compound: O=C1NC(=O)C(CC(=O)N(Cc2ccco2)C2(C(=O)NC3CCCCC3)CCCCC2)N1 (stereo unspecified)
-2.17

* * *

test: viability of HCT116 without oncogenic beta-catenin – human colon tumor cells, pilot screen (AID 823); conditions: HCT116 beta-catenin knockout viability, CellTiter-Glo, 60 h; at 10 µM; stronger effect = lower value;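 also: 0% = wells killed by 20 µM Hyamine and 100% = untreated DMSO cell wells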
Inconclusive results are not listed.
Give viability for every item shown.
Unit % implied. Number only.

Provide viability value for the following compound: Cc1ccccc1-n1nc2c(c1NC(=O)c1cccc(F)c1)CS(=O)C2 (stereo unspecified)
98.8

Provide viability value for the following compound: NC(=O)C1CCN(C(=O)c2cnn(-c3ccccc3)c2NC(=O)c2ccco2)CC1
99.7

Provide viability value for the following compound: O=C(NCCN1CCCC1)c1ccc(CS(=O)(=O)c2c(Cl)cccc2Cl)o1
106

Provide viability value for the following compound: COC(=O)Cn1ncc2c(C)n(Cc3ccccc3)c(C)c2c1=O
100

Provide viability value for the following compound: O=C(Nc1ccc(N2CCCC2)cc1)c1ccc(Br)o1
94

Provide viability value for the following compound: Cc1c(NC(=O)c2ccc3c(c2)OCO3)cccc1-c1nc2ncccc2o1
102

Provide viability value for the following compound: Cc1c(C)c2ccc(OC3CCCCC3=O)cc2oc1=O (stereo unspecified)
104

Provide viability value for the following compound: Cn1c(/C=N/n2cnnc2)nc2ccccc21
94

Provide viability value for the following compound: CCOc1ccc(N(CC(=O)NC2CCCCC2)S(=O)(=O)c2c(C)noc2C)cc1
95.5

Provide viability value for the following compound: COc1cccc(-c2nnc(NC(C)=O)o2)c1
101

Provide viability value for the following compound: Cc1cccc(C(=O)N2CCN(C(=O)c3cccc(C)c3)C(C)C2)c1 (stereo unspecified)
95.9

* * *

Give growth inhibition for every item shown.
assay: S. cerevisiae growth inhibition in permissive medium (OD615), pilot counter-assay for S. cerevisiae lifespan shortening project, permissive growth control (AID 705); settings: OD615, 24 h, at 10 µM, stronger effect = higher value
Unit % implied. Number only.

Provide growth inhibition value for the following compound: COC(=O)c1oc2ccc(Br)cc2c1NC(C)=O
-7.17

Provide growth inhibition value for the following compound: COC(=O)C1(C#N)C(c2ccccc2)C1(C(=O)OC)C(=O)OC (stereo not drawn)
-6.71

Provide growth inhibition value for the following compound: CC(=O)SCCC(=O)N1C(C)CCCC1C(=O)O (stereo not drawn)
-1.05

Provide growth inhibition value for the following compound: O=C(CCCCn1c(=O)[nH]c2ccccc2c1=O)NCCc1c[nH]c2ccccc12
-16.7

Provide growth inhibition value for the following compound: CCOC(=O)CC1C(=O)NCCN1C(=O)c1cc2c(=O)n3cccc(C)c3nc2s1 (stereo not drawn)
-11

Provide growth inhibition value for the following compound: COc1ccc(OC)c(NC(=O)c2cn(C)c(=O)c3cc(OC)c(OC)cc23)c1
-17.3

Provide growth inhibition value for the following compound: CC1CCN(CC(=O)N2c3ccccc3CCc3ccccc32)CC1
-14.5

Provide growth inhibition value for the following compound: CCN(CC)C(=O)COc1ccc2oc(C)c(C(=O)OC(C)C)c2c1
-11.4

Provide growth inhibition value for the following compound: O=C(CCn1c(=S)[nH]c2ccccc2c1=O)N1CCOCC1
-0.255

Provide growth inhibition value for the following compound: CC(=O)c1cccc(NC(=O)Nc2cc3sccc3n2C)c1
10.3

Provide growth inhibition value for the following compound: CCN(CC)C(=O)CCCOc1ccc(Cl)cc1Cl
-2.5

Provide growth inhibition value for the following compound: C=CCOC(=O)c1sc(NC(=O)c2ccco2)nc1C
-13.2

Provide growth inhibition value for the following compound: Cn1c(=NC(=O)C2CC2)sc2cc(F)cc(F)c21
-0.79

Provide growth inhibition value for the following compound: COc1ccccc1CNC(=O)c1cnc2sccn2c1=O
-5.31

Provide growth inhibition value for the following compound: c1nc(NCC2CCCO2)c2[nH]cnc2n1 (stereo not drawn)
-10

Provide growth inhibition value for the following compound: CCOc1ccc(NC(=O)CSc2nccn2C)cc1
-14.8

Provide growth inhibition value for the following compound: COc1ccc(NC(=O)CN(c2ccc(C(C)C)cc2)S(=O)(=O)c2c(C)noc2C)cc1OC
-14.5

Provide growth inhibition value for the following compound: O=C(CSc1ncnc2nc[nH]c12)c1ccc(Cl)cc1
1.02

Provide growth inhibition value for the following compound: COc1cc(C2C(C#N)=C(C)NC3=C2C(=O)CC(C)(C)C3)ccc1OCCO (stereo not drawn)
-9.96

Provide growth inhibition value for the following compound: CCCc1cc(=O)oc2cc(C)cc(OC(=O)c3ccco3)c12
-7.19

Provide growth inhibition value for the following compound: CC1CCCCN1CCNC(=O)c1ccc2c(=O)n(CCc3ccccc3)c(=O)[nH]c2c1 (stereo not drawn)
-23.3

Provide growth inhibition value for the following compound: O=C(NCc1ccc(F)cc1)c1cc2ccccn2n1
1.54

Provide growth inhibition value for the following compound: CCCCSc1nc2c(cnn2-c2ccc(C)c(C)c2)c(=O)[nH]1
-3.77

Provide growth inhibition value for the following compound: Cc1c(-n2c(CN3C(=O)c4ccccc4C3=O)nc3ccccc3c2=O)c(=O)n(-c2ccccc2)n1C
-2.33

Provide growth inhibition value for the following compound: COc1ccccc1-c1nc(-c2ccc(Br)cc2)no1
4.16

Provide growth inhibition value for the following compound: COc1ccc(NC(=O)CN2C(=O)CC(C)(C)S(=O)(=O)c3ccccc32)cc1
-4.11

Provide growth inhibition value for the following compound: COc1ccc(S(=O)(=O)Nc2ccc(F)c(Cl)c2)cc1OC
-15.3

Provide growth inhibition value for the following compound: CC1CCN(c2nc(-c3ccccc3)c(C#N)c(=O)[nH]2)CC1
-10.1

Provide growth inhibition value for the following compound: CCOc1ccc(N2CC(C(=O)Nc3ccccc3OC)CC2=O)cc1 (stereo not drawn)
-7.43

Provide growth inhibition value for the following compound: Cc1cccc(-n2ncc3c(NCCCn4ccnc4)ncnc32)c1
-2.31

Provide growth inhibition value for the following compound: CN1CCN(c2cc(=O)n(-c3ccc(Cl)cc3)c(=O)[nH]2)CC1
-1.55

Provide growth inhibition value for the following compound: CC(C)n1c(SCc2ccccc2F)nc2c1c(=O)n(C)c(=O)n2C
-11.3

Provide growth inhibition value for the following compound: O=C(Cn1cc2c(n1)CCCC2)NCCCN1CCN(C2CCCCC2)CC1
-3.58
